B1: RPS21 (parent)
chain: AEVSWEPGRREGCDICAGKAGCPI

- Variants of: B1
- Experiment: protein stability index of a GFP-peptide fusion (GPS, HEK-293T) (PSI 1-6); higher = more stable;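 note: lentivirally expressed fusions sorted by FACS into six bins by GFP to DsRed ratio, PSI derived from sequencing read proportions per bin multiplied by bin number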
- Run parameters: c terminus: a fixed tail appended
Would you mind labelling by protein stability index? At or over 3 is label 1, under is label 0.

Example results:
G12I
label 0
E11Y
label 0
V3P
label 1
G18P
label 1

*Q* Hello, I need to know if C22D has measured protein stability index not below 3. Thanks!
*A* label 1

*Q* Hello, I need to know if A17E has measured protein stability index not below 3. Thanks!
*A* label 1

Values from the supplement of paper PMC10567573
